Data provenance: PubChem BioAssay

- assay.comment: MRP1 drug-resistance reversers in H69AR cells – cell-based, doxorubicin co-treatment, pilot screen (AID 601)
- test.context: H69AR cells + 2 uM doxorubicin, CellTiter-Glo, 72 h; at 10 µM; stronger effect = higher value
Recorded differential viability (reversal), one value per entry.

molecule	differential viability (reversal) / %
O=C(NCCN1CCCCCC1)c1ccc(N2CCCC2=O)cc1	3.38
S=c1nc(C2CC2)[nH]c2ccccc12	5.99
COCCN(CC(=O)Nc1ccccc1C)S(=O)(=O)c1ccc(S(=O)(=O)N2CCCC2)cc1	4.26
Cc1cccc(NC(=O)c2oc3c(c2C)C(=O)CC(C)(C)C3)n1	9.28
Nc1nc(CN2CCOCC2)cs1	3.83
S=c1[nH]ncn1-c1ccccn1	-4.69
Cn1nc(-c2ccc(C(=O)N3CCN(c4ccccc4)CC3)cc2)c2ccccc2c1=O	3.5
Cc1cc(N2C(=O)C(O)=C(C(=O)c3ccc(C)o3)C2c2cccs2)no1 (stereo unspecified)	-4.59
COc1ccc(C(=O)COC(=O)CCn2nnc(-c3cccs3)n2)cc1	9.01
CCCCCCNC(=O)c1c(N)n(/N=C/c2ccco2)c2nc3ccccc3nc12	-0.96
O=C(c1ccco1)N1CCN(C(=O)c2ccc(Cn3cc(Br)cn3)o2)CC1	-12.7
Cc1ccc(OCc2nnc(SCC(=O)Nc3ccc4c(c3)OCO4)n2C)cc1	-22.4
CON(C)c1nc(Oc2ccc(=O)[nH]n2)nc(N(C)C)n1	11.8
CCC(=O)n1nc(-c2ccco2)nc1N	11.3
CCOC(=O)c1c(COC(=O)c2ccco2)nc2ccccc2[n+]1[O-]	2.55
O=C(O)C1C2CCC(O2)C1C(=O)Nc1cccc(F)c1 (stereo unspecified)	10.3
Cc1nc2cc(NC(=O)N3CC4(C)CC3CC(C)(C)C4)ccc2n1C (stereo unspecified)	7.53
O=C(NC1CCCCC1)C(c1ccc(Cl)cc1)N(C(=O)c1cnccn1)c1ccc2c(c1)OCO2 (stereo unspecified)	4.39
CCOC(=O)c1nnn(-c2nonc2NC(C)=O)c1C	1.68
COc1ccc(C2C(C(C)=O)=C(C)N=c3s/c(=C\c4ccc5c(c4)OCO5)c(=O)n32)c(OC)c1 (stereo unspecified)	-2.84
CC1(c2ccncc2)Nc2ccccc2-c2nc3ccccc3n21 (stereo unspecified)	-2.33
CCOC(=O)c1cc2sccc2n1CC(=O)Nc1ccc2c(c1)OCCO2	7.47
COc1cc(-n2nc(C)c3c2OC(N)=C(C#N)C3c2ccccc2)c(Cl)c(Br)c1O (stereo unspecified)	1.54
CC(NCCC(c1ccccc1)c1ccccc1)c1ccccc1 (stereo unspecified)	-0.87
COc1ccc(S(=O)(=O)NCc2ccco2)cc1-c1nnc2c3ccccc3c(C)nn12	-10.3
Cc1ccc(C)c(C(=O)NC2CC(C)(C)NC(C)(C)C2)c1	-0.525
CCN(CC(=O)O)S(=O)(=O)c1cc(Cl)ccc1Cl	-1.08
Cc1ccc(S(=O)(=O)N(C)CC(=O)NC2CCCC2)cc1	17.5
O=C(COC(=O)c1ccc(NS(=O)(=O)c2ccc3c(c2)OCCO3)cc1)NCC1CCCO1 (stereo unspecified)	11.2
O=C1CC(Sc2nnc(-c3ccccc3)o2)C(=O)N1c1ccccc1 (stereo unspecified)	-6.77
Cn1cc(-c2nc3ccccc3[nH]2)c2ccccc21	-9.86
O=S(=O)(c1ccccc1)N1CCSC1c1ccco1 (stereo unspecified)	-15.6
COc1ccccc1-c1ccc(Nc2cccc(C(C)=O)c2)nn1	15.8
C=CCNc1oc(-c2cccc3ccccc23)nc1C#N	0.75
CC(=O)OC(C(=O)NCc1ccco1)c1cccnc1 (stereo unspecified)	3.39
CN1CCN(S(=O)(=O)c2ccc(NC(=O)c3ccc(F)cc3)cc2)CC1	7.89
O=C1C=C(NCc2ccco2)C2(CCCCC2)O1	22.5
COc1cccc(NC(=O)C2CCN(c3ncccn3)CC2)c1	-2.54
CSc1n[nH]c(NCc2ccccc2)n1	0.755
COc1ccc(Cn2c(C)nc3c(c2=O)c2nc4ccccc4nc2n3Cc2ccco2)cc1	3.86
COc1cc(NS(=O)(=O)c2cccc3nsnc23)c(C(=O)O)cc1OC	8.71
CC(NS(=O)(=O)c1ccc(OCC(=O)N2CCOCC2)c(Cl)c1)c1ccccc1 (stereo unspecified)	0.355
O=C(NCc1ccco1)c1cccc(-c2nnc(-c3ccccc3)o2)c1	5.49
Nc1nc(Cl)nc2c1ncn2[C@@H]1O[C@H](CO)[C@@H](O)[C@H]1O	-24.3
COC(=O)CN(c1ccc2c(c1)OCO2)S(C)(=O)=O	12.5
O=S1(=O)C=C(Sc2nnc(-c3ccccc3)o2)c2ccccc21	0.375
